Reported recombinant barcode read abundance (log10) values follow for various sequences
Test: recombinant barcode read abundance after kanamycin selection (control-corrected) (log10(CPM+1)); higher = more efficient recombination; sequences stand for … in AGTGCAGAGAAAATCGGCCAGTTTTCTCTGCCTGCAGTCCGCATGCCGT…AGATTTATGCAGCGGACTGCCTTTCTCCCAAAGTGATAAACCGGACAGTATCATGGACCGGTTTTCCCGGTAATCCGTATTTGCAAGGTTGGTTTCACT; site = the 11-nt target;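 note: IS621 recombinase and bridge RNA in Escherichia coli cells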
When you answer, write just the number.

Recorded results for 5 sequences are shown here.
ATGCATCCTTGGGTTCTAACCTGTTGCCT (site ATGCATCCTAG): 1.99
TAGGAGACTTGGGTTCTAACCTGTTGCCC (site TAGGAGACTGG): 1.99
TCCAATCCTTGGGTTCTAACCTGTTGCAG (site TCCAACCCTCT): 0.0551
TAGGCGCCTTGGGTTCTAACCTGTTGCAT (site TAGGCGCCTAA): 4.17
GTCGAGTCTTGGGTTCTAACCTGTTGCCT (site GTCGAGTCTAG): 1.61

Need recombinant barcode read abundance (log10), item TGACGCTCTTGGGTTCTAACCTGTTGCCT (site TGACGCTCTAG)
0.905

Need recombinant barcode read abundance (log10), item GAAATGGCTTGGGTTCTAACCTGTTGCCT (site GAAAGGGCTAG)
0.108

Need recombinant barcode read abundance (log10), item AGACAGTCTTGGGTTCTAACCTGTTGCCA (site AGACAGTCTTG)
0.311

Need recombinant barcode read abundance (log10), item AGTCTACCTTGGGTTCTAACCTGTTGCTT (site AGTCTACCTAA)
0.331

Need recombinant barcode read abundance (log10), item TTATCTCCTTGGGTTCTAACCTGTTGCTT (site TTATCTCCTAA)
0.205

Need recombinant barcode read abundance (log10), item TAGCCTTCTTGGGTTCTAACCTGTTGCCT (site TTGCCTTCTAG)
0.0659

Need recombinant barcode read abundance (log10), item ACGAGTCCTTGGGTTCTAACCTGTTGCGT (site ACGAGTCCTAG)
0.202

Need recombinant barcode read abundance (log10), item GCTTGTTCTTGGGTTCTAACCTGTTGCCT (site GCTTGTTCTAG)
0.233

###

Test: recombinant barcode read abundance after kanamycin selection (control-corrected) (log10(CPM+1)); higher = more efficient recombination; sequences stand for … in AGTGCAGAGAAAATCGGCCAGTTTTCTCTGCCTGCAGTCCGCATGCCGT…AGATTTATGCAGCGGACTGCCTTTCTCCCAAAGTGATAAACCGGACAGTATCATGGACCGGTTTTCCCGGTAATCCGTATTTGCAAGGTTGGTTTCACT; site = the 11-nt target
Reported recombinant barcode read abundance (log10) values follow for various sequences
When you answer, write just the number.

Recorded results for 3 sequences are shown here.
TCATCTCCTTGGGTTCTAACCTGTTGCCT (site TCATCTCCTAG): 0.092
TCGCGTCCTTGGGTTCTAACCTGTTGCCG (site ACGCGTCCTCG): 0.116
ACCTACTCTTGGGTTCTAACCTGTTGCTT (site AGCTACCCTAA): 0.315

Field: next sequence
Need recombinant barcode read abundance (log10), item GTTCGAGCTTGGGTTCTAACCTGTTGCCT (site GTTCGAGCTAG)
1.61
